- measuredOn: JAK2/JAK2 homdimeric complex (Homo sapiens (Human), UniProt O60674)
- Sequence (O60674 whole entry): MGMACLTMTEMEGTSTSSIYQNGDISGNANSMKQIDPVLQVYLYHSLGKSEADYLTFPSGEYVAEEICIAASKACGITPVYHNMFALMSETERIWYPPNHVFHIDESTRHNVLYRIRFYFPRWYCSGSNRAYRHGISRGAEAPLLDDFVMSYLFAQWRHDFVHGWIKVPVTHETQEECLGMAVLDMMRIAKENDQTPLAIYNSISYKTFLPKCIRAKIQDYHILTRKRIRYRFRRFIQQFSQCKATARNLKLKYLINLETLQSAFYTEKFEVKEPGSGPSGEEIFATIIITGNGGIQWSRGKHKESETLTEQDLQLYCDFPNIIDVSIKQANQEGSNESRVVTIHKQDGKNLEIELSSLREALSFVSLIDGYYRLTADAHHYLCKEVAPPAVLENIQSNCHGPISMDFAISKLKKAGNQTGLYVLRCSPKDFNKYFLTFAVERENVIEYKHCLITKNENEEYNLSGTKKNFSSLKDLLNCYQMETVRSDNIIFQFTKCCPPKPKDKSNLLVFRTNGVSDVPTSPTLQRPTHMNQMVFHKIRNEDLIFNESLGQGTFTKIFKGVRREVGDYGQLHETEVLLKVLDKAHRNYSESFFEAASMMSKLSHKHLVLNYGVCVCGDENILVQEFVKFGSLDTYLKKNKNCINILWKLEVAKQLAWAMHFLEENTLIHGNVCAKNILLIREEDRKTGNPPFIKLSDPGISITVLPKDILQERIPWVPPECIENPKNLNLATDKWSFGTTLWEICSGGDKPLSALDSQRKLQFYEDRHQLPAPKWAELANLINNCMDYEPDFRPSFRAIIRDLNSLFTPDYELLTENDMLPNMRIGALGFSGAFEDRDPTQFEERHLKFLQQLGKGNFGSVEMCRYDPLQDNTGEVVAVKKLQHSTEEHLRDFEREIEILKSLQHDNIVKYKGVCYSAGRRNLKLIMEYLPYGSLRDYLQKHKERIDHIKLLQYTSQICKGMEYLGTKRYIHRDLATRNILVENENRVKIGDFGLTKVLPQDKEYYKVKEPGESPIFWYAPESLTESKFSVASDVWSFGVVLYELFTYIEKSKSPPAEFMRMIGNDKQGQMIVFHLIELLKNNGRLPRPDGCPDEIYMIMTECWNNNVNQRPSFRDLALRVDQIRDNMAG
- Sequence (P32927 17-897 partner): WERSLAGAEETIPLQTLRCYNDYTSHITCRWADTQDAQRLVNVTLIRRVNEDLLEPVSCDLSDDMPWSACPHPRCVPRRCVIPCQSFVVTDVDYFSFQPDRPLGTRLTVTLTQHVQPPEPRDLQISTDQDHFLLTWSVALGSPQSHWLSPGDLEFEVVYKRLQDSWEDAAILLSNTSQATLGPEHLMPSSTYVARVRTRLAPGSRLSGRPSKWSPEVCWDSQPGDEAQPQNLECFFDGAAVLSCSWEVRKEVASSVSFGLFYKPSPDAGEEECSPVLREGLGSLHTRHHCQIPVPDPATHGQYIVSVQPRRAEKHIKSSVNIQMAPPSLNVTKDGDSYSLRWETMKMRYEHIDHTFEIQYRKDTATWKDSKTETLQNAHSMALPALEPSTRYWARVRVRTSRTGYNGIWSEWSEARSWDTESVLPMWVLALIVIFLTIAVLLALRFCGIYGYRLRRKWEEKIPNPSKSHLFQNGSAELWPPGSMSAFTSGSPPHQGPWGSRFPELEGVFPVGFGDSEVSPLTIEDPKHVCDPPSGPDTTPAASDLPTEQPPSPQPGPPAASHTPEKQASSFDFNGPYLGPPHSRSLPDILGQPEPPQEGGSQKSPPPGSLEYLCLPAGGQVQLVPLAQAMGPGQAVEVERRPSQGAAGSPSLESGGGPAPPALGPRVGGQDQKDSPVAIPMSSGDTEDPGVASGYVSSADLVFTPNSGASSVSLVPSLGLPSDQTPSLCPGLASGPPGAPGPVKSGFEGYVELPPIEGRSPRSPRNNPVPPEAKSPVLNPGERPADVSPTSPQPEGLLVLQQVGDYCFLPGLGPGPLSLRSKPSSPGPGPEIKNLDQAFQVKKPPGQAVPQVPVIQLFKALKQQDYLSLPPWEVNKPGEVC
- testName: GM-CSF Induced pSTAT5 in Human PBMC
- reportedConditions: GM-CSF 5 ng/mL for 20 minutes, pSTAT5 by MSD, read-out: PBMC_GMCSF_pSTAT5 IC50
pIC50: −log10 of the molar value.
Collected pIC50 values appear next to each entry.

| molecule | pIC50 |
| --- | --- |
| CNc1cc(Nc2cc(F)ccc2F)nc2c(C(=O)NC3CC3)cnn12 | < 4.90 |
| CNc1cc(Nc2cccn([C@@H]3CCC[C@H](OC)C3)c2=O)nc2c(C(=O)N[C@@H]3CC[C@H]3OC)cnn12 [I-995] | < 4.30 |
| CNc1cc(Nc2cc(Cl)cn(C3CCCN(C)C3)c2=O)nc2c(C(=O)N[C@@H]3C[C@@H]3F)cnn12 (some centres unmarked) | < 4.30 |
| CNc1cc(Nc2cccn(-c3cnc(C)o3)c2=O)nc2c(C(=O)N[C@@H]3CC[C@H]3OC)cnn12 | < 4.30 |
| CNc1cc(Nc2cccnc2OC2CC2)nc2c(C(=O)NCC(C)(C)CO)cnn12 | < 4.30 |

Record CNc1cc(Nc2cccn([C@H]3CCCOC3)c2=O)nc2c(C(=O)N[C@H]3CC[C@@H]3OC)cnn12 : what is its pIC50 with JAK2/JAK2 homdimeric complex (Homo sapiens (Human), UniProt O60674)?
< 4.30

One more molecule: CNc1cc(-c2cn(C(C)C)c3ncc(F)cc23)nc2c(C(=O)N[C@H]3CC[C@H]3O)cnn12
< 4.90

One more molecule: CNc1cc(Nc2cc(Cl)cn([C@@H]3CCCN(C)C3)c2=O)nc2c(C(=O)NC3CC3)cnn12
< 4.30

The reported numbers originate from patent US10508120B2.
